Measured EC50 by item
- experiment summary: NIH-3T3 fibroblast cytotoxicity, dose response, cytotoxicity control, cell-based, fluorescence, Alamar Blue, secondary assay (AID 2327);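 note: NIH-3T3 mouse fibroblasts cultured with fluconazole at 8 µg/mL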
- Type: functional
Active and inactive are the calls of the source. Cut-off read from the data, not from the text of the source: actives have a measured EC50 and inactives only a lower limit.
attribute measured: EC50

[
  {
    "entry smiles": "O=C(OCn1ncc(Cl)c(Cl)c1=O)c1ccc(C(F)(F)F)cc1",
    "attribute measured": "EC50",
    "val": "4.13 µM (inconclusive)"
  },
  {
    "entry smiles": "Nc1nc(-c2ccccc2)c(N=Nc2ccccc2Cl)s1",
    "attribute measured": "EC50",
    "val": "> 160 µM (inactive)"
  },
  {
    "entry smiles": "CCOC(=O)C(=NC1CCCCC1)NNc1cccc(C(F)(F)F)c1",
    "attribute measured": "EC50",
    "val": "> 150 µM (inconclusive)"
  },
  {
    "entry smiles": "C(=C\\c1ccccc1)/C=N/Nc1nc(N2CCCCC2)nc(N2CCCCC2)n1",
    "attribute measured": "EC50",
    "val": "> 150 µM (inactive)"
  }
]
